Cited source for all entries: the supplement of paper PMC7726561

TESTED TARGET: HLA-C*04:01
ASSAY TEXT: thermal melting temperature (Tm) of peptide-HLA complex; higher = more thermostable pHLA complex
RECORDED CONDITIONS: C1R-B*07:02
yes means recorded thermal melting temperature is 60 °C or above; no means it is below 60 °C.

For this sequence, is measured thermal melting temperature 60 °C or higher? LFDKSINEF
no

// inclusive: thermal melting temperature at least 60 °C? input: AWEERETIL
no

Check this sequence for thermal melting temperature at or above 60 °C: YYEEQHPEL
no

# check: thermal melting temperature of LFHPSNVEM is greater than or equal to 60 °C
no

Textbook exercise: given the entry TFDSTIHF , state whether its thermal melting temperature is greater than or equal to 60 °C.
no

Is the recorded value of thermal melting temperature equal to or greater than 60 °C for this sequence? VIDEPVRL
no

Is reported thermal melting temperature greater than or equal to 60 °C here: IFDSKVTEI
no

Does the sequence FYDERIVVV have recorded thermal melting temperature that is 60 °C or more?
yes

Determine whether this sequence has thermal melting temperature no lower than 60 °C: TFDPVTKVL
no

Textbook exercise: given the entry RFDSDVGEF , state whether its thermal melting temperature is greater than or equal to 60 °C.
no

Reported thermal melting temperature reaches at least 60 °C for VYDPSLKTLL ?
no

Quick check: does AFDEAIAEL have thermal melting temperature greater than or equal to 60 °C?
yes
